target: aldose reductase (Rattus norvegicus, UniProt P07943); construct: the lenses were excised and homogenized in cold distilled water; from tissue; host or cells: lens of male SD rats, homogenate supernatant (crude enzyme); assay: Inhibitory activity against aldose reductase (crude enzyme from rat lenses, NADPH oxidation at 340 nm, D,L-glyceraldehyde substrate); format: biochemical; conditions: pH 6.2, 10^-5 M; aldose reductase from SD rat lenses, pH 6.2, 30° C.; read-out: Percentage of inhibition (%)
readout: inhibition at 10 µM (%)

Known results for compounds:
# compound, inhibition at 10 µM / %
records = [
    ("O=C(O)CCC(C=Cc1cccc(O)c1)=C1SC(=S)NC1=O (single isomer, unassigned)", 82),
    ("CCOc1cc(C=CC(C)=C2SC(=S)NC2=O)ccc1OCC(=O)O", 87.4),
    ("O=C1NC(=S)SC1=Cc1ccc(OCCCCc2nnn[nH]2)cc1", 84),
    ("COC(=O)COc1c(C=CC(C)=C2SC(=S)NC2=O)cccc1OC", 34.3),
]

1: CCCCCCC(C=Cc1ccc(C=CC(=O)O)cc1)=C1SC(=S)NC1=O (single isomer, unassigned)
2: CC(C=Cc1ccc(OCC(=O)O)c(OCC(=O)O)c1)=C1SC(=S)NC1=O (single isomer, unassigned) [83 Isomer A]
Query string: Please compare: 1 and 2 . Report which one has the smaller inhibition at 10 µM value. To answer, give the label that identifies your chosen option.
Result string: 1

a: CC(=Cc1ccccc1OCC(=O)O)C=C1SC(=S)NC1=O
b: CC(CCCC(=O)Nc1ccccc1C(=O)O)=C1SC(=S)NC1=O
c: COC(=O)COc1ccccc1C=CC(C)=C1SC(=S)NC1=O
Query string: Order the records, beginning with the lowest inhibition at 10 µM and ending with the highest. Order the labels as requested and list them.
Result string: c, b, a

====

target: aldose reductase (Rattus norvegicus); construct: the lenses were excised and homogenized in cold distilled water; from tissue; host or cells: lens of male SD rats, homogenate supernatant (crude enzyme); experiment: Inhibitory activity against aldose reductase (crude enzyme from rat lenses, NADPH oxidation at 340 nm, D,L-glyceraldehyde substrate); assay type: biochemical; details: pH 6.2, 10^-6 M; aldose reductase from SD rat lenses, pH 6.2, 30° C.; read-out: Percentage of inhibition (%)
readout: inhibition at 1 µM (%)

Here are 6 molecules together with their reported answers.
# molecule, inhibition at 1 µM, %
data = [
    ("CC(C=Cc1cc(C(C)C)c(OCC(=O)O)c(C(C)C)c1)=C1SC(=S)NC1=O", 41.4),
    ("COC(=O)COc1ccc(C=CC(C)=C2SC(=S)NC2=O)cc1OC", 33.8),
    ("COc1cc(C=CC(C)=C2SC(=S)NC2=O)ccc1OCC(=O)O", 84.7),
    ("O=C(O)CCC(C=Cc1cccc(O)c1)=C1SC(=S)NC1=O (single isomer, unassigned)", 32.9),
    ("CCCC(=Cc1ccccc1OCC(=O)OC)C=C1SC(=S)NC1=O (single isomer, unassigned) [61 Isomer A]", 28.7),
    ("COc1cc(CCC(C)=C2SC(=S)NC2=O)ccc1OCC(=O)O", 46.4),
]

P: COC(=O)COc1ccc(Cl)cc1C=CC(C)=C1SC(=S)NC1=O
Q: CCOc1cc(C=CC(C)=C2SC(=S)NC2=O)ccc1OCC(=O)O
Query string: Between item P and item Q , which reported inhibition at 1 µM is smaller? Reply briefly: the label of your chosen item.
Result string: P

Cited source: patent US5116855A
